tested on: SRC kinase (Homo sapiens, UniProt P12931)
Construct: purchased Upstate Biotechnology 14-117
Sequence (P12931 whole entry): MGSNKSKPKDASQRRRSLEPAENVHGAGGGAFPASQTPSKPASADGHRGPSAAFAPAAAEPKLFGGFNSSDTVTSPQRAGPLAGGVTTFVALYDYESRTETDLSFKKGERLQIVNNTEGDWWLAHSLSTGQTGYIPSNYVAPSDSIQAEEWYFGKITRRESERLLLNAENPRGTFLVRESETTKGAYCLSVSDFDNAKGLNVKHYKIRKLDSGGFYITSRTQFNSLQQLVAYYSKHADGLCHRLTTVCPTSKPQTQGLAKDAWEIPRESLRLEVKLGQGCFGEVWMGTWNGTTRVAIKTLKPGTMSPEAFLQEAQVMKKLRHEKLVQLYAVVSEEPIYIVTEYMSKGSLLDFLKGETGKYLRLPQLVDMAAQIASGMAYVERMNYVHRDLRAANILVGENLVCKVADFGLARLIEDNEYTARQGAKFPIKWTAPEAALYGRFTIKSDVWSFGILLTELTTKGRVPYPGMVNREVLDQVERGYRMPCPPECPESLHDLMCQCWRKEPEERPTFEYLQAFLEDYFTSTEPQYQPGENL
test summary: Assay for inhibition of SRC kinase activity
Assay type: biochemical
assay setup: fluorescence polarization, read-out: percentage inhibition at 20 μM
Where a name gives a salt, the structure may show the parent alone.
outcome measure: inhibition at 20 µM (%)
Provide only the numeric value, understood in %.

Below: 7 compounds and their reported inhibition at 20 µM.
[
  {
    "compound": "COc1ccc2c(c1)ncn2-c1nc(N[C@H]2CC[C@H](N)CC2)nc2[nH]cnc12 [Example 15, dihydrochloride]",
    "unit abbrev": "%",
    "inhibition at 20 µM": 99
  },
  {
    "compound": "N[C@H]1CC[C@H](Nc2nc(N3CCc4cc(Br)ccc43)c3nc[nH]c3n2)CC1 [Example 32]",
    "unit abbrev": "%",
    "inhibition at 20 µM": 100
  },
  {
    "compound": "Cl.Cl.N[C@H]1CC[C@H](Nc2nc(N3CCc4cc([N+](=O)[O-])ccc43)c3nc[nH]c3n2)CC1 [Example 30, dihydrochloride]",
    "unit abbrev": "%",
    "inhibition at 20 µM": 99
  },
  {
    "compound": "O[C@H]1CC[C@H](Nc2nc(-n3cnc4ccccc43)c3nc[nH]c3n2)CC1 [Example 24]",
    "unit abbrev": "%",
    "inhibition at 20 µM": 99
  },
  {
    "compound": "Cl.N[C@H]1CC[C@H](Nc2nc(-n3cnc4cc(Cl)c(Cl)cc43)c3nc[nH]c3n2)CC1 [Example 8, hydrochloride]",
    "unit abbrev": "%",
    "inhibition at 20 µM": 98
  },
  {
    "compound": "CC[C@@H](CO)Nc1nc(-n2cnc3ccccc32)c2nc[nH]c2n1 [Example 27]",
    "unit abbrev": "%",
    "inhibition at 20 µM": 95
  },
  {
    "compound": "N[C@H]1CC[C@H](Nc2nc(N3CCc4cc(F)ccc43)c3nc[nH]c3n2)CC1 [Example 38, dihydrochloride]",
    "unit abbrev": "%",
    "inhibition at 20 µM": 95
  }
]

Shifting focus to the compound that follows.
query: Find inhibition at 20 µM (SRC kinase (Homo sapiens, UniProt P12931)) for the entry N[C@H]1CC[C@H](Nc2nc(-n3cnc4cc(OCc5ccccc5)ccc43)c3nc[nH]c3n2)CC1 [Example 20]
result: 99
